Assay: Tissue distribution of radioactivity in rats after intravenous administration
Type: in vivo
Conditions: rat, thyroid, iv, after 5 minutes, read-out: Radioactivity accumulated in the thyroid tissue

| Smiles Entry | Unit | tissue uptake at 5 min |
| --- | --- | --- |
| O=C(O)CCCC[Te]CCCCCCCCCc1ccc([125I])cc1 | %ID/g | 1.52 |

---

Experiment: Tissue distribution of radioactivity in rats after intravenous administration
Assay type: in vivo
Conditions: rat, lungs, iv, 2 h, read-out: Distribution of radioactivity, Lungs

| Smiles Entry | tissue uptake at 2 h, %ID/g |
| --- | --- |
| O=C(O)CCCC[Te]CCCCCCCCCc1ccc([125I])cc1 | 1.57 |
